- Tested on: RPMI-8226
- test details: NCI tumour cell line growth inhibition, 48 h
Active and inactive are the calls of the source. No stated cut-off is given here; in the data, active = GI50 up to about 1.1 µM and inactive = higher.
Assign a class; possible classes are 1.0 for active, 0.0 for inactive

Field: example entries. Status: answers known.
compound	discrete label
C#CC(O)/C=C/C(O)CCCC(O)CC#CC(O)C#CCCCCC(O)/C=C/CCCC(O)/C=C/CCCCCCCCCCCCCC(O)C(O)C#CC(=O)O (stereo unspecified)	0.0
N#Cc1ccc(/N=N/N2CCCC2)cc1	0.0
COC(=O)[C@@H]1[C@H](O)[C@H](C)[C@H](O)[C@H](C)/C=C\C=C(\C)C(=O)Nc2c(C)c(OC(C)=O)c3c(c2O)C(=O)C(C)=C2OCOC(=C23)/C(C)=C/[C@@H](O)[C@H](O)[C@@H](C)[C@H]1OC(C)=O	0.0
O=c1c2ccccc2sc2ccccc12	0.0
O=C(Nc1ccc(C(F)(F)F)cc1)NC(F)(F)F	0.0
O=C(/C=C/c1ccsc1)c1ccco1	0.0
Oc1ncnc2c1CCCN2	0.0
N#CC(N)(C(=O)CCC(=O)Nc1cccc(Cl)c1)c1ccc(Cl)cc1 (stereo unspecified)	0.0

Q: Which outcome was assigned to Cc1c2cc[n+](C)cc2c(COC2OC(CO)C(O)C2O)c2c3ccccc3n(C)c12 (stereo unspecified) in this test?
Result: 0.0

Q: Repeat for the following compound: `O=[N+]([O-])C(=C1NCCN1)C(Cl)=C(Cl)Cl`
Result: 0.0

----------
- Tested on: OVCAR-3
- test details: NCI tumour cell line growth inhibition, 48 h
Active and inactive are the calls of the source. Rule as the data show it: active = GI50 up to about 1.1 µM and inactive = higher.
Assign GI50 to each entry below.

Use these answered entries as a reference point.
compound	meas value
O=C1N/C(=N/N=C/C(O)C(O)C(O)C(O)CO)N/C1=C\c1ccco1 (stereo unspecified)	> 100 µM (inactive)
O=S(=O)(CC1=NC2C=CC=CC2N=C1)NCc1ccccc1 (stereo unspecified)	83.2 µM (inactive)
Cc1[nH]nc(C(=O)N/N=C/c2ccccc2Cl)c1/N=N\N(C)C	20.8 µM (inactive)
Cc1cc(S(=O)(=O)[N-]/C(=N/S(=O)(=O)c2ccc(Cl)cc2)[n+]2ccc(N(C)C)cc2)c(SCC(=O)O)cc1Cl	69.7 µM (inactive)
C=C(Br)CNC(=O)Nc1ccc(Cl)c(Cl)c1	13.4 µM (inactive)

// below: GI50 requested for another compound
Q: Query: GI50; subject: `C/C(=N\c1c2ccccc2nc2ccccc12)N(C)C`
Result: 14.4 µM (inactive)

----------
- Tested on: SW-620
- test details: NCI tumour cell line growth inhibition, 48 h
Active and inactive are the calls of the source. Rule as the data show it: active = GI50 up to about 1.1 µM and inactive = higher.
Assign GI50 to each entry below.

Use these answered entries as a reference point.
compound	GI50
CC1(C)OC(=O)C(C)(C)OC1=O	> 100 µM (inactive)
O=C1N/C(=N/N=C/C(O)C(O)C(O)C(O)CO)N/C1=C\c1ccco1 (stereo not drawn)	> 100 µM (inactive)
C=C[C@H]1CN2CCc3c([nH]c4cc(O)ccc34)[C@@H]2C[C@@H]1C[C@H]1c2[nH]c3ccccc3c2CCN1C	1.92 µM (inactive)
COC(=O)C1=C(c2cc(OC)c(OC)c(OC)c2)OC(c2cc(OC)c(OC)c(OC)c2)C1COC(C)=O (stereo not drawn)	87.5 µM (inactive)
O=C(NCCCCN(CCCNC(=O)C(F)(F)F)Cc1ccccc1)C(F)(F)F	> 100 µM (inactive)

Go through the list and state GI50 for each entry.
1. Cc1cccc2sc(NC(=O)c3cc([N+](=O)[O-])ccc3Cl)nc12
2. CCCCCNC(=O)OC1CCn2c1nc1c2C(=O)C(C)=C(N2CC2)C1=O (stereo not drawn)
3. Nc1ccc2c(c1)nc1n2C(c2c(F)cccc2F)SC1 (stereo not drawn)
4. COc1cc(C2c3cc4c(cc3OC(N3CCOCC3)C2C)OCO4)cc(OC)c1OC (stereo not drawn)
5. COc1ccc(CCN2CCOCC2)cc1

Result:
1: 2.42 µM (inactive); 2: 0.492 µM (active); 3: > 100 µM (inactive); 4: 0.59 µM (active); 5: > 100 µM (inactive)

Go through the list and state GI50 for each entry.
1. CCOC(=O)C1C(O)CC2c3ccccc3-c3ccccc3C21 (stereo not drawn)
2. CC(C)(CC#N)c1cc(CC(C)(C)c2cc(CC(C)(C)c3cc(C(C)(C)C4(C)OCCO4)no3)no2)no1

Result:
48.4 µM (inactive)
> 100 µM (inactive)

Q: Query: GI50; subject: `O=C(O)CCSC(=S)Nc1ccc([N+](=O)[O-])cc1`
Result: > 70.1 µM (inactive)

----------
- System: CAKI-1
- test details: NCI tumour cell line growth inhibition, 48 h
The source made the active and inactive calls. Cut-off read from the data, not from the text of the source: active = GI50 up to about 1.1 µM and inactive = higher.
Assign a class; possible classes are T = active, F = inactive

Field: example entries. Status: answers known.
compound	discrete label
O=c1[nH]c(=O)n(CCOc2ccccc2)cc1Nc1ccccc1	F
CN(C)S(=O)(=O)/N=C/c1cccc(/C=N/S(=O)(=O)N(C)C)c1	F
Cc1c2cc[n+](C)cc2c(COC2OC(CO)C(O)C2O)c2c3ccccc3n(C)c12 (stereo unspecified)	F
CC(C)(CC#N)c1cc(CC(C)(C)c2cc(CC(C)(C)c3cc(C(C)(C)C4(C)OCCO4)no3)no2)no1	F
Nc1ncnc2c1ncn2C1OC(CO)C(O)C(O)C1O (stereo unspecified)	F
Cc1cccc(-c2cc(O)c3c(C)ccnc3n2)c1	T
O=C(/C=C/c1cccc(Br)c1)N1CCN(CCOC(c2ccccc2)c2ccccc2)CC1	F
N=C1CSC2=NC3=C(CCC/C3=C\c3ccccc3)C(c3ccccc3)N12 (stereo unspecified)	F

Q: Which outcome was assigned to `CC(=O)N/N=C1\NC(=O)C[C@H]2[C@@H]3CC=C4C[C@@H](OC(C)=O)CC[C@]4(C)[C@H]3CC[C@]12C` in this test?
Result: F

Q: Repeat for the following compound: `O=C(C=P(c1ccccc1)(c1ccccc1)c1ccccc1)c1ccc(-c2ccc(F)cc2F)cc1`
Result: F

Q: Repeat for the following compound: CC(C)N1CN(C(C(=O)N[C@@H]2C(=O)N3C2SC(C)(C)C3C(=O)O)c2ccc(O)cc2)CSC1=S (stereo partly specified)
Result: F

Q: Repeat for the following compound: `CCN(CC)CCN(/C(=N/c1ccccc1)N1CCCCC1)c1ccccc1`
Result: F

Q: Repeat for the following compound: `c1ccc(CCCCNCc2cc(CNCCCCc3ccccc3)cc(CNCCCCc3ccccc3)c2)cc1`
Result: F

Q: Repeat for the following compound: CC1(C)CC2(C)CC1CC2NC(=O)CCN1CCOCC1 (stereo unspecified)
Result: F

Q: Repeat for the following compound: `COc1ccc(-c2cc(=O)c3cc(O)ccc3o2)c(OC)c1OC`
Result: F

Q: Repeat for the following compound: C=CCOC(=O)N1[C@H]2C#C/C=C\C#C[C@]3(O)C(=O)C[C@H](C)[C@]24O[C@]43C2=CC(=O)C=CC21OC (stereo partly specified)
Result: F

Q: Repeat for the following compound: `CN(C)Cc1ccc(-c2cc3onc(-c4ccccc4)c3c(=O)n2C)cc1`
Result: F

Q: Repeat for the following compound: `OCc1cc2ccncc2c2c1[nH]c1ccccc12`
Result: F

Q: Repeat for the following compound: CCC12CCCC(=O)N1C(CO)C(c1ccccc1)O2 (stereo unspecified)
Result: F

Q: Repeat for the following compound: `CC1(C)OC(=O)C(C)(C)OC1=O`
Result: F

Q: Repeat for the following compound: CC(Oc1ccccc1Cl)C(=O)NN1C(=O)CC(=O)N(c2ccc(Cl)cc2)C1=S (stereo unspecified)
Result: F

----------
Assign GI50 to each entry below.
- Tested on: SNB-75
- test details: NCI tumour cell line growth inhibition, 48 h
Calls of active or inactive are those of the source. Cut-off read from the data, not from the text of the source: active = GI50 up to about 1.1 µM and inactive = higher.

Use these answered entries as a reference point.
compound	experimental target	value type	meas value
N=C(N)c1csc([C@@H]2O[C@H](CO)[C@@H](O)[C@H]2O)n1	SNB-75	GI50	80.9 µM (inactive)
c1cc2ccc1C1NCCCN1CCN1CCCNC1c1ccc(cc1)C1NCCCN1CCN1CCCNC21 (stereo unspecified)	SNB-75	GI50	> 100 µM (inactive)
O=C(/C=C/c1ccsc1)c1ccco1	SNB-75	GI50	12.8 µM (inactive)
COC1(O)C(=O)c2ccccc2OC1(OC)c1ccccc1 (stereo unspecified)	SNB-75	GI50	> 100 µM (inactive)
CC(C)(CCC(C)(C)N1OC1c1ccccc1)N1OC1c1ccccc1 (stereo unspecified)	SNB-75	GI50	> 100 µM (inactive)

// below: GI50 requested for another compound
Q: Query: GI50; subject: CC1=N[C@@](C)(C2CC3C=CC2C3=O)COC1=O (stereo partly specified)
Result: > 100 µM (inactive)

----------
- Tested on: SNB-78
- test details: NCI tumour cell line growth inhibition, 48 h
The source made the active and inactive calls. Cut-off read from the data, not from the text of the source: active = GI50 up to about 1.1 µM and inactive = higher.
Assign GI50 to each entry below.

Use these answered entries as a reference point.
compound	meas value
NNC(=S)N/N=C(\c1nc2ccc(Cl)cc2nc1O)C(O)c1ccc(Cl)cc1Cl (stereo not given)	> 100 µM (inactive)
CC1C2C=C(O)C(=O)C(C2=O)C1c1ccccc1 (stereo not given)	87.5 µM (inactive)
CN(C)c1ccccc1CC(c1c[nH]c2ccccc12)c1c[nH]c2ccccc12	14.4 µM (inactive)

Go through the list and state GI50 for each entry.
1. N#CC(N)(C(=O)CCC(=O)Nc1cccc(Cl)c1)c1ccc(Cl)cc1 (stereo not given)
2. CCC1C(C)c2c([nH]c3ccccc23)C2C(=O)N(c3ccccc3)C(=O)C21 (stereo not given)

Result:
> 100 µM (inactive)
19.2 µM (inactive)
